*1 amine or outer side, *2 acyl side, *3 side chain or, on linkers, in order; H or OH if unused. Where a SMILES comes first, the peptide text is derived from it. Bridges are numbered along the chain shown (N, C = ends). Roman numbers before positions name the chains, in order. [ ]: non-standard residue; d: D form. Piperazine(1,4-diyl) = C1CN([*:2])CCN1[*:1]; Dmt = Cc1cc(O)cc(C)c1C[C@H](N)C(=O)O; Cystamine = C(CSSCCN[*:2])N[*:1]
Mu-type opioid receptor (Homo sapiens, UniProt P35372) measurements of Ki, listed per entry.
Sequence (P35372 whole entry): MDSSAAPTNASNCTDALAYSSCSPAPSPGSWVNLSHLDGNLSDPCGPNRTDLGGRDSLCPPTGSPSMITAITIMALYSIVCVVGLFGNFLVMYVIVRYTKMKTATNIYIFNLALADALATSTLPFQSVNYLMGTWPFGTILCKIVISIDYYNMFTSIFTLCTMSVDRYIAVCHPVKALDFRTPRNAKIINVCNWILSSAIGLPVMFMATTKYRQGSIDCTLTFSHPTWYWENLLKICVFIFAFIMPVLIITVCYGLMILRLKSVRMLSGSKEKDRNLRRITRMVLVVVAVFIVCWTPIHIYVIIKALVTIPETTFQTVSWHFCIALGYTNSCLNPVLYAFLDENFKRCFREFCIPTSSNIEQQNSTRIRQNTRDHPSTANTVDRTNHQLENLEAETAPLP
Please don't drop the unit; write it after the number.

[[record]]
compound = "Cc1cc(O)cc(C)c1C[C@H](N)C(=O)N[C@@H]1CSSC[C@@H](NC(=O)[C@@H](N)Cc2c(C)cc(O)cc2C)C(=O)NCC(=O)N[C@@H](Cc2ccccc2)C(=O)N2CCN(CC2)C(=O)[C@H](Cc2ccccc2)NC(=O)CNC1=O (I: H-[Dmt][dC]GF / II: H-[Dmt][dC]GF; disulfide I:2-II:2; linker I:C-II:C via Piperazine(1,4-diyl))"
experimental_system = "Mu-type opioid receptor (Homo sapiens, UniProt P35372)"
measured = "2.5 nM"

[[record]]
compound = "Cc1cc(O)cc(C)c1C[C@H](N)C(=O)N[C@@H]1CSSC[C@@H](NC(=O)[C@@H](N)Cc2c(C)cc(O)cc2C)C(=O)NCC(=O)N[C@@H](Cc2ccccc2)C(=O)NCCSSCCNC(=O)[C@H](Cc2ccccc2)NC(=O)CNC1=O (I: H-[Dmt][dC]GF / II: H-[Dmt][dC]GF; disulfide I:2-II:2; linker I:C-II:C via Cystamine)"
experimental_system = "Mu-type opioid receptor (Homo sapiens, UniProt P35372)"
measured = "0.27 nM"

[[record]]
compound = "N[C@@H](Cc1ccc(O)cc1)C(=O)N[C@@H]1CSSC[C@@H](NC(=O)[C@@H](N)Cc2ccc(O)cc2)C(=O)NCC(=O)N[C@@H](Cc2ccccc2)C(=O)N2CCN(CC2)C(=O)[C@H](Cc2ccccc2)NC(=O)CNC1=O (HELM PEPTIDE1{Y.[dC].G.F}|PEPTIDE2{Y.[dC].G.F}|CHEM1{[C1CN([*:2])CCN1[*:1]]}$PEPTIDE1,PEPTIDE2,2:R3-2:R3|PEPTIDE1,CHEM1,4:R2-1:R1|PEPTIDE2,CHEM1,4:R2-1:R2$$$V2.0)"
experimental_system = "Mu-type opioid receptor (Homo sapiens, UniProt P35372)"
measured = "8.9 nM"


Next compound, Ki to be filled in.
Prompt: Item: N[C@@H](Cc1ccc(O)cc1)C(=O)N[C@@H]1CSSC[C@@H](NC(=O)[C@@H](N)Cc2ccc(O)cc2)C(=O)NCC(=O)N[C@@H](Cc2ccccc2)C(=O)NCCSSCCNC(=O)[C@H](Cc2ccccc2)NC(=O)CNC1=O (HELM PEPTIDE1{Y.[dC].G.F}|PEPTIDE2{Y.[dC].G.F}|CHEM1{[C(CSSCCN[*:2])N[*:1]]}$PEPTIDE1,PEPTIDE2,2:R3-2:R3|PEPTIDE1,CHEM1,4:R2-1:R1|PEPTIDE2,CHEM1,4:R2-1:R2$$$V2.0) Test system: Mu-type opioid receptor (Homo sapiens, UniProt P35372) Read-out: Ki Value: ?
Response: 2.4 nM
